I'd appreciate it if you could supply ligation selection enrichment values for the items below.
B1: library; a variant is named by its letters at N, in order (parent)
chain: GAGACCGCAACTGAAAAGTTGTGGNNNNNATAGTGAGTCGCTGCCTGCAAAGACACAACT

- Variants of: B1
- test.method.notes: ligation selection enrichment (abundance after / before one-round selection) (fold); higher = more template-directed ligation activity
- details: with T7Psub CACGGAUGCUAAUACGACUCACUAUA; MgCl2 25 mM; 42 °C; 4 h; pH 8.5
One number for each entry.

Before answering, review these 3 worked examples.
TCGTC	0.202
CTTTC	0.205
ACGGA	0.204

Then this variant:
Reported ligation selection enrichment, variant CTGTG : ____
0.195
